B1: Azoarcus group I ribozyme (parent)
chain: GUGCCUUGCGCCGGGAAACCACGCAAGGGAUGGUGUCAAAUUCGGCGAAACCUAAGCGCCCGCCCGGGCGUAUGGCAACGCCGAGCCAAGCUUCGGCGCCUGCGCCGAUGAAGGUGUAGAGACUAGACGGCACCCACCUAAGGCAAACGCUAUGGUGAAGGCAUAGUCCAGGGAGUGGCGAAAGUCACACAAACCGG

# Variants of: B1
# experimental details: reverse-splicing fitness (ratio to wild type); higher = more active; in vitro selection; Mg2+ level not given
# binarize reverse-splicing fitness: threshold 0.01 inclusive, high side Satisfied, low side Not satisfied

{"variant descriptor": "A120G A145C C169U U176G", "assigned label": "Satisfied"}
{"variant descriptor": "A120U A145U C169G U176A", "assigned label": "Satisfied"}
{"variant descriptor": "A111U A120G A145U C150U U176C", "assigned label": "Satisfied"}
{"variant descriptor": "A111G A120G C150A C169A U176A", "assigned label": "Satisfied"}
{"variant descriptor": "A111U A145G C150U C169A U176C", "assigned label": "Satisfied"}
{"variant descriptor": "A111U A120G C150G C169U U176A", "assigned label": "Satisfied"}
{"variant descriptor": "C82A A120C A145G C150A C169U", "assigned label": "Satisfied"}
{"variant descriptor": "A111C A145U C150A C169U", "assigned label": "Satisfied"}
{"variant descriptor": "A111C A120G A145C C150A", "assigned label": "Satisfied"}
{"variant descriptor": "C82A A111G A145C U176G", "assigned label": "Satisfied"}
{"variant descriptor": "A120U A145U C150A C169U U176C", "assigned label": "Satisfied"}
{"variant descriptor": "C82G A111U A120C C150U C169A", "assigned label": "Satisfied"}
{"variant descriptor": "C82U A120U A145C C150U C169A U176G", "assigned label": "Not satisfied"}
{"variant descriptor": "C82U A111C A120U A145C C150A C169G", "assigned label": "Not satisfied"}
{"variant descriptor": "C82A A111U A120U A145U C150G C169A U176G", "assigned label": "Not satisfied"}
{"variant descriptor": "C82U A111G A120U A145U C150U C169G", "assigned label": "Not satisfied"}
{"variant descriptor": "C82G A111C A120U A145G C150U C169U", "assigned label": "Not satisfied"}
{"variant descriptor": "C82G A111C A120G A145U C150U C169G U176A", "assigned label": "Satisfied"}
{"variant descriptor": "A120U A145U", "assigned label": "Satisfied"}
{"variant descriptor": "C82U A111U A120G A145U C150G C169U U176G", "assigned label": "Not satisfied"}
{"variant descriptor": "C82G A111U C150G C169U U176C", "assigned label": "Satisfied"}
{"variant descriptor": "C82U A111C A145G C150U C169G U176G", "assigned label": "Not satisfied"}
